target: IRAK3-ePL (Homo sapiens); construct: expressed in transfected cells; host or cells: 293T CRBN OE/GSPT1 G575N KI cells, lentiviral transduction, puromycin selected; test: IRAK3-ePL overexpressing degradation assay (InCELL Hunter luminescence, dose response); assay type: cell-based; conditions: lowest percentage of target protein remaining following compound treatment
Sequence (Q9Y616 whole entry): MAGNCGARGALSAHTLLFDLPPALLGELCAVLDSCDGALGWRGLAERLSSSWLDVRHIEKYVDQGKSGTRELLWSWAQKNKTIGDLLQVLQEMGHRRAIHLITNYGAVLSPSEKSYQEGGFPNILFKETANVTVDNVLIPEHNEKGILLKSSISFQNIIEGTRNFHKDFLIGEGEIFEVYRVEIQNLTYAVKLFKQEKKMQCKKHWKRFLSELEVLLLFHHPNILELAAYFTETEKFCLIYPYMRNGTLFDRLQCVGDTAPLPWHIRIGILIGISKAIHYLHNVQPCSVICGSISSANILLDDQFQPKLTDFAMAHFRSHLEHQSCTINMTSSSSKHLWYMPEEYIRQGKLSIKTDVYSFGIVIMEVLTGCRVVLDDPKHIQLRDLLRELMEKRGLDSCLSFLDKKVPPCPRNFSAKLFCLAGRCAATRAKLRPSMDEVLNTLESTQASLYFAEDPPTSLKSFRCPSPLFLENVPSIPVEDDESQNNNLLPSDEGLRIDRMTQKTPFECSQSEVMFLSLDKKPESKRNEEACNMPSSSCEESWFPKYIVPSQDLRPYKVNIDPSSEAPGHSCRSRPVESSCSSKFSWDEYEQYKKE
Sequence (Q96SW2 whole entry partner): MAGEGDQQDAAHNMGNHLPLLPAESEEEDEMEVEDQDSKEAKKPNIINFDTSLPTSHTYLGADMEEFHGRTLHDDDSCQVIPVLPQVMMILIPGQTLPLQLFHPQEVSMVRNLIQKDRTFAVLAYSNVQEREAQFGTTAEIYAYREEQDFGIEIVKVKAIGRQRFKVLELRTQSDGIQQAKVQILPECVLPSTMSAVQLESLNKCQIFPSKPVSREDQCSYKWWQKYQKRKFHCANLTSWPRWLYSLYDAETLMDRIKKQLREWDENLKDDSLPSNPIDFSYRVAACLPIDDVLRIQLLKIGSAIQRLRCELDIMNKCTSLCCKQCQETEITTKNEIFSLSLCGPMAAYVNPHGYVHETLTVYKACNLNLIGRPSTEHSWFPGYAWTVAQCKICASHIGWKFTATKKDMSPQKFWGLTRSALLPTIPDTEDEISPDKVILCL
property.label: IRAK3 ePL degradation Ymin (%)

compound: Cc1cccc(-c2cnc(Nc3cnn(C4CCN(CCCN5CCN(c6ccc(C7CCC(=O)NC7=O)cc6)CC5)CC4)c3)c3nccn23)c1 (centres unmarked) [Compound 4]
target: IRAK3-ePL (Homo sapiens)
IRAK3 ePL degradation Ymin (%): 13
//
compound: Cc1cc(-c2cnc(Nc3cnn([C@H]4CCN(CCN5CCN(c6ccc(C7CCC(=O)NC7=O)cc6)CC5)C[C@H]4F)c3)c3nccn23)c(F)cc1F (some centres unmarked) [Compound 63]
target: IRAK3-ePL (Homo sapiens)
IRAK3 ePL degradation Ymin (%): 25
//
compound: Cc1ccc(-c2cnc(Nc3cnn(C4CCN(CCN5CCN(c6ccc(C7CCC(=O)NC7=O)cc6)CC5)CC4)c3)c3nccn23)cc1 (centres unmarked) [Compound 78]
target: IRAK3-ePL (Homo sapiens)
IRAK3 ePL degradation Ymin (%): 29
//
compound: Cc1cc(-c2cnc(Nc3cnn([C@H]4CC[C@H](CCN5CCN(c6ccc([C@@]7(C)CCC(=O)NC7=O)cc6)CC5)CC4)c3)c3nccn23)c(F)cc1F [Compound 81]
target: IRAK3-ePL (Homo sapiens)
IRAK3 ePL degradation Ymin (%): 27
//
compound: Cc1cc(-c2cnc(Nc3cnn(C4CCN(CCN5[C@H](C)CN(c6ccc(C7CCC(=O)NC7=O)cc6)C[C@H]5C)CC4)c3)c3nccn23)c(F)cc1F (some centres unmarked) [Compound 58]
target: IRAK3-ePL (Homo sapiens)
IRAK3 ePL degradation Ymin (%): 25
//
compound: Cc1cc(-c2cnc(Nc3cnn(C4CCN(CCN5CCN(c6ccc(C7CCC(=O)NC7=O)c(F)c6)CC5)CC4)c3)c3nccn23)c(F)cc1F (centres unmarked) [Compound 53]
target: IRAK3-ePL (Homo sapiens)
IRAK3 ePL degradation Ymin (%): 22
//
compound: Cc1cc(-c2cnc(Nc3cnn([C@H]4C[C@H](CCN5CCN(c6ccc(C7CCC(=O)NC7=O)cc6)CC5)C4)c3)c3nccn23)c(F)cc1F (some centres unmarked) [Compound 66]
target: IRAK3-ePL (Homo sapiens)
IRAK3 ePL degradation Ymin (%): 32
//
compound: Cc1cc(-c2cnc(Nc3cnn([C@H]4CC[C@@H](CCN5CCN(c6ccc(C7CCC(=O)NC7=O)cc6)CC5)CC4)c3)c3nccn23)c(F)cc1F (some centres unmarked) [Compound 14]
target: IRAK3-ePL (Homo sapiens)
IRAK3 ePL degradation Ymin (%): 15

(a) Cc1cc(-c2cnc(Nc3cnn([C@H]4CC[C@H](CCN5CCN(c6ccc(C7CCC(=O)NC7=O)cc6)CC5)CC4)c3)c3nccn23)c(F)cc1F (some centres unmarked) [Compound 11]
(b) Cc1cc(-c2cnc(N(C)c3cnn(C4CCN(CCN5CCN(c6ccc(C7CCC(=O)NC7=O)cc6)CC5)CC4)c3)c3nccn23)c(F)cc1F (centres unmarked) [Compound 52]
[in] Hi, I'm comparing two records. Which one has the lower IRAK3 ePL degradation Ymin, a or b ? Let me know the label of the one you choose.
[out] a
(a: 22%, b: 40%)
